Form field: MIC (one value per entry).
# System: Neisseria catarralis 1502
# test.protocol: Human bacteria MIC
# Type: cell-based
# details: Neisseria catarralis 1502; nutrient agar, 5% chocolated horse blood, 18 hours 37° C.; read-out: M.I.C.

| compound | experimental.value |
| --- | --- |
| C/C(=C\C(=O)OCCCC(=NO)c1cccs1)C[C@@H]1OC[C@H](C[C@@H]2O[C@H]2[C@@H](C)[C@H](C)O)[C@@H](O)[C@H]1O | 0.5 µg/mL |

Q: Quick check: MIC of C/C(=C\C(=O)OCc1ccc(C=NO)o1)C[C@@H]1OC[C@H](C[C@@H]2O[C@H]2[C@@H](C)[C@H](C)O)[C@@H](O)[C@H]1O [Example 7, 5-Hydroxyiminomethylfurfuryl monate A] ?
A: 0.25 µg/mL

Q: Quick check: MIC of C/C(=C\C(=O)OCCCC(=NNC(N)=O)c1ccccc1)C[C@@H]1OC[C@H](C[C@@H]2O[C@H]2[C@@H](C)[C@H](C)O)[C@@H](O)[C@H]1O [Example 2, 4-Phenyl-4-semicarbazonobutyl monate A] ?
A: 1 µg/mL

Q: Quick check: MIC of C/C(=C\C(=O)OCCCC(=NO)c1ccccc1)C[C@@H]1OC[C@H](C[C@@H]2O[C@H]2[C@@H](C)[C@H](C)O)[C@@H](O)[C@H]1O [Example 1, 4-Hydroxyimino-4-phenylbutyl monate A] ?
A: 0.2 µg/mL

Q: Quick check: MIC of CON=C(CCCOC(=O)/C=C(\C)C[C@@H]1OC[C@H](C[C@@H]2O[C@H]2[C@@H](C)[C@H](C)O)[C@@H](O)[C@H]1O)c1ccccc1 [Example 5, 4-Methoxyimino-4-phenylbutyl monate A] ?
A: 1 µg/mL
